Reference for the values: patent US10894786B2

What follows is a record of IC50 for UniProtKB Q9NYV4.
Sequence (Q9NYV4 whole entry, looked up, species assumed): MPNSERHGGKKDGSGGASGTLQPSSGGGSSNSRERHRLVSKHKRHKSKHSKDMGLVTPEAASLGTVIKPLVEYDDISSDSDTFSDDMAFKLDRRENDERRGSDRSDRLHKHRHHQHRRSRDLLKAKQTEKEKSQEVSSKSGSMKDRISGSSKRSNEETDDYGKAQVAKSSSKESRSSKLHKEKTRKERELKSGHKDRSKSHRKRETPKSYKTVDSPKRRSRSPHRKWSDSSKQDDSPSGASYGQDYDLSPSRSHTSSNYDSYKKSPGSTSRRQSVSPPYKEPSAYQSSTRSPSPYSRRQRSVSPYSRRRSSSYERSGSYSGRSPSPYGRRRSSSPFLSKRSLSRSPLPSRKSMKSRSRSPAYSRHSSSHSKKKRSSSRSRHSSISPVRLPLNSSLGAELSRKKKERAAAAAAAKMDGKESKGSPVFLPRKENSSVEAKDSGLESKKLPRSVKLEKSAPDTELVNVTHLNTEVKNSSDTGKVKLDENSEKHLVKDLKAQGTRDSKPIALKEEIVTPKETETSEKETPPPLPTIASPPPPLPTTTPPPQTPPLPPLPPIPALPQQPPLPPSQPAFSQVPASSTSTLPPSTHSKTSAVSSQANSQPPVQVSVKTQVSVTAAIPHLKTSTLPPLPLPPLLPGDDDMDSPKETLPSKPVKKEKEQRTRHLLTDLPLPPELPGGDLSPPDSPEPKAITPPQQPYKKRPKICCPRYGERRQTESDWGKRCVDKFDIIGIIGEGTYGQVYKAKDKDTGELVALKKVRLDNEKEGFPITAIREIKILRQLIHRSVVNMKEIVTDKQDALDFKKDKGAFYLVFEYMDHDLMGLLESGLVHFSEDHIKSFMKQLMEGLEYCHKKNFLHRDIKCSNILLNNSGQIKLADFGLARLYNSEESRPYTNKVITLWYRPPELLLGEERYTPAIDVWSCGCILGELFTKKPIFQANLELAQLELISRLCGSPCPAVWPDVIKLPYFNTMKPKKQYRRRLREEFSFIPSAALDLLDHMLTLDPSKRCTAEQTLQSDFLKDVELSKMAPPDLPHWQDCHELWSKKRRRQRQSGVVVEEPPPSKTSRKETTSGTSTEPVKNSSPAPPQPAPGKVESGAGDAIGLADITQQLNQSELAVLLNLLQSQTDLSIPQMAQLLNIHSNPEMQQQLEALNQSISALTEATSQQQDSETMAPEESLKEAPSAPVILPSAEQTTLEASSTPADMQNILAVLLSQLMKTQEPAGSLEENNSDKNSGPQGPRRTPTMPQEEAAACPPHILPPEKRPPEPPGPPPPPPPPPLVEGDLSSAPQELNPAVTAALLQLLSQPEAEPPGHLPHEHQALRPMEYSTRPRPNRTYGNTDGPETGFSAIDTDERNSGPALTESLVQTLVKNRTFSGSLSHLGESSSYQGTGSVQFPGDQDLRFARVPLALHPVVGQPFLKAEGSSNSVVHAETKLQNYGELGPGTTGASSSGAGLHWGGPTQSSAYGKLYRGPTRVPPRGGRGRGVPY
Sequence (O75909 whole entry partner, looked up, species assumed): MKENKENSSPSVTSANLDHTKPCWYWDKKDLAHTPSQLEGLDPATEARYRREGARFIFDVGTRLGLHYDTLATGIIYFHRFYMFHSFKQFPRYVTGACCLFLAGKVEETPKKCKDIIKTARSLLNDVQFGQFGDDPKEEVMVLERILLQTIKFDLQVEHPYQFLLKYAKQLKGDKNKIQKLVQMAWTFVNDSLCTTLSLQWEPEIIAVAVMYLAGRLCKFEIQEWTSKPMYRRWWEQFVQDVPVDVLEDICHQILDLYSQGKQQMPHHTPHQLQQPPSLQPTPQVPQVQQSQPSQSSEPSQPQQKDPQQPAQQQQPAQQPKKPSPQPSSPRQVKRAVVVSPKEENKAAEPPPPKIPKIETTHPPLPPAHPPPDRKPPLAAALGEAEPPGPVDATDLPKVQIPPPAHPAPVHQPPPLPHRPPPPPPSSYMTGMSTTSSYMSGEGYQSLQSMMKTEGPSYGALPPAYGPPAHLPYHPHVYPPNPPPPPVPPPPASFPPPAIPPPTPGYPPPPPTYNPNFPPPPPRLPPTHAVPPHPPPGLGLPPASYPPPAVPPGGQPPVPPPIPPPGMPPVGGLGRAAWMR
# answer = value followed by unit

These solved cases illustrate the format of a correct answer.
compound: C=CC(=O)N1CC=C(c2ccc(C(C)C(=O)Nc3cc(C4CC4)[nH]n3)cc2F)CC1 (stereo not drawn) [Compound 45]
val: 445 nM
--
compound: C=CC(=O)N1CCC(c2ccc(C(C)C(=O)Nc3cc(C4CC4)[nH]n3)cn2)CC1 (stereo not drawn)
val: 58 nM
--
compound: C[C@H](C(=O)Nc1cc(C2CC2)[nH]n1)c1ccc(C2=CCN(C(=O)/C=C/CN(C)C)CC2)cc1
val: 235 nM
--
compound: C=CC(=O)N1CCC=C(c2ccc(C(C)C(=O)Nc3cc(C4CC4)[nH]n3)cc2F)C1 (stereo not drawn)
val: 14 nM
--
compound: C=CC(=O)N1CC=C(c2ccc(C(C)C(=O)Nc3cc(C4CC4)[nH]n3)cn2)CC1 (stereo not drawn) [Compound 4]
val: 72 nM
--
compound: C=CC(=O)N1CC=C(c2ccc(CC(=O)Nc3cc(C4CC4)[nH]n3)cn2)C1
val: 10 nM
--
compound: C=CC(=O)N1CCN(c2ccc(C(C)C(=O)Nc3cc(C4CC4)[nH]n3)cc2)CC1 (stereo not drawn) [Compound 17]
val: 590 nM
--
compound: CC#CC(=O)N1CC=C(c2ccc(C(C)C(=O)Nc3cc(C4CC4)[nH]n3)cn2)CC1 (stereo not drawn)
val: 203 nM

Per the records, this compound ( C=CC(=O)N1CC=C(c2ccc(C(C)C(=O)Nc3cc(C4CC4)[nH]n3)cn2)C1 (stereo not drawn) [Compound 46] ) has IC50 equal to 32 nM

----------
Target: CDK13 (Homo sapiens (Human), UniProt Q14004)
Sequence (Q14004 whole entry, looked up, species assumed, one chain of several): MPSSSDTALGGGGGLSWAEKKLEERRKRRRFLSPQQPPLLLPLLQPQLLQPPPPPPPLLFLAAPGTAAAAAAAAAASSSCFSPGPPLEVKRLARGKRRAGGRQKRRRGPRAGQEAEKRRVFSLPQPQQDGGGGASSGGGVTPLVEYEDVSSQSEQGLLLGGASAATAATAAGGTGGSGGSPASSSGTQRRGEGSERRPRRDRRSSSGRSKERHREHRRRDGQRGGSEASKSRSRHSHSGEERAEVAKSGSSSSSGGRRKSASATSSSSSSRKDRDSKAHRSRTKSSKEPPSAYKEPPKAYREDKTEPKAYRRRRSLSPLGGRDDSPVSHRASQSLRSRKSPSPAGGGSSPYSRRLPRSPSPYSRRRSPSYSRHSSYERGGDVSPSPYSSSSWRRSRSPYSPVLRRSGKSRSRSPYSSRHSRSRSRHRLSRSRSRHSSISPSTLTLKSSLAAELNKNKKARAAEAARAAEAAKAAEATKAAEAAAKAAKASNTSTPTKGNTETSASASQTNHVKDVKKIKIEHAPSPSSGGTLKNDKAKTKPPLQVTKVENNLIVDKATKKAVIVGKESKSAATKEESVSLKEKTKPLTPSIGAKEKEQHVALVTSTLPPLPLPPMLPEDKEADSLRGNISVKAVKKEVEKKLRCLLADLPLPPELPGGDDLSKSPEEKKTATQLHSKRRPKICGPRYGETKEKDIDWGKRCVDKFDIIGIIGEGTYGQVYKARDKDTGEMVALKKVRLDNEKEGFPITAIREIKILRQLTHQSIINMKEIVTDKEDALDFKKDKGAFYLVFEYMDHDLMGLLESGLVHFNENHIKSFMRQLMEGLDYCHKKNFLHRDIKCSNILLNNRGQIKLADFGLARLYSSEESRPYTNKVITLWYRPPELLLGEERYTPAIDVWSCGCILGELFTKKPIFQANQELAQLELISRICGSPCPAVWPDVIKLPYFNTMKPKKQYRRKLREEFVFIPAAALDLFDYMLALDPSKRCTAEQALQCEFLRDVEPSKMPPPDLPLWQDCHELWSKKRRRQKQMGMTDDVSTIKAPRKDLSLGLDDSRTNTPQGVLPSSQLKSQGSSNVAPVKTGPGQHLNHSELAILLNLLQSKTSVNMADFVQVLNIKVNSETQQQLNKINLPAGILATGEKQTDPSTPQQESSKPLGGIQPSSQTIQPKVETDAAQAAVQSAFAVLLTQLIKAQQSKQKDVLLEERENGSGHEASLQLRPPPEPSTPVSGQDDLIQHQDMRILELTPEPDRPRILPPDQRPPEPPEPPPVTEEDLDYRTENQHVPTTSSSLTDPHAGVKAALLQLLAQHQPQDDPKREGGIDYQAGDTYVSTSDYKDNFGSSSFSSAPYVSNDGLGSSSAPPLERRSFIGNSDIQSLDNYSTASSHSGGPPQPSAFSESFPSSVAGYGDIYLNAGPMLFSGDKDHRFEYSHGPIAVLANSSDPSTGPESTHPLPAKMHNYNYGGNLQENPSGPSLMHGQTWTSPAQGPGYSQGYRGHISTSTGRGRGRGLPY
Assay: Biochemical assay for CDK13, LanthaScreen Eu Kinase Binding Assay
Details: ratio of IC50
Text: Binding of an inhibitor to the kinase competes for binding with the tracer, resulting in a loss of FRET signal.
# label = bin(measured Ratio CDK7/CDK13), where bins are Low = under 30, Mid = from 30 up to 400, High = 400 and over

Illustrative cases are given below, each with its answer.
compound: C=CC(=O)N1CCCC(c2ccc(C(C)C(=O)Nc3cc(C4CC4)[nH]n3)cn2)C1 (stereo not drawn) [Compound 41]
label.class: Mid
//
compound: C=CC(=O)NC1CCC(c2ccc(C(C)C(=O)Nc3cc(C4CC4)n[nH]3)cc2)CC1 (stereo not drawn) [Compound 11]
label.class: Mid
//
compound: C=CC(=O)N1CC=C(c2ccc(C(C)C(=O)Nc3cc(C4CC4)[nH]n3)cc2F)CC1 (stereo not drawn) [Compound 44]
label.class: Mid
//
compound: C=CC(=O)N1CC=C(c2ccc(C(C(=O)Nc3cc(C4CC4)[nH]n3)C(C)C)cn2)CC1 (stereo not drawn) [Compound 7]
label.class: Low
//
compound: C=CC(=O)N1CCC(c2ccc(C(C)C(=O)Nc3cc(C4CC4)[nH]n3)cn2)CC1 (stereo not drawn) [Compound 13]
label.class: Mid
//
compound: C=CC(=O)N1CC=C(c2ccc(C(C)C(=O)Nc3cc(C4CC4)[nH]n3)cn2)CC1 (single isomer, unassigned) [Compound 6]
label.class: Mid
//
compound: C=CC(=O)N1CC=C(c2ccc(C(C)C(=O)Nc3cc(C4CC4)[nH]n3)cn2)CC1 (stereo not drawn) [Compound 4]
label.class: High
//
compound: C=CC(=O)N1CCC=C(c2ccc(C(C)C(=O)Nc3cc(C4CC4)[nH]n3)cn2)C1 (stereo not drawn) [Compound 35]
label.class: Low

// query Which class is correct for the following compound? C=CC(=O)N1CC=C(c2ccc(C(C)C(=O)Nc3cc(C4CC4)[nH]n3)cn2)C1 (stereo not drawn) [Compound 38]
// result Low

// query Which class is correct for the following compound? C=CC(=O)N1CC=C(c2ccc(CC(=O)Nc3cc(C4CC4)[nH]n3)cn2)C1 [Compound 53]
// result High

// query Which class is correct for the following compound? C=CC(=O)N1CC=C(c2ccc(C(C)C(=O)Nc3cc(C4CC4)[nH]n3)cc2F)CC1 (stereo not drawn) [Compound 45]
// result Low

----------
target: CDK7 (Homo sapiens (Human), UniProt P50613); assay: Biochemical assay for CDK7, LANCE TR-FRET; settings: ATP 1 mM/100 μM, 60 min pre-incubation; read-out: CDK 7 IC50
Sequence (P50613 whole entry, looked up, species assumed): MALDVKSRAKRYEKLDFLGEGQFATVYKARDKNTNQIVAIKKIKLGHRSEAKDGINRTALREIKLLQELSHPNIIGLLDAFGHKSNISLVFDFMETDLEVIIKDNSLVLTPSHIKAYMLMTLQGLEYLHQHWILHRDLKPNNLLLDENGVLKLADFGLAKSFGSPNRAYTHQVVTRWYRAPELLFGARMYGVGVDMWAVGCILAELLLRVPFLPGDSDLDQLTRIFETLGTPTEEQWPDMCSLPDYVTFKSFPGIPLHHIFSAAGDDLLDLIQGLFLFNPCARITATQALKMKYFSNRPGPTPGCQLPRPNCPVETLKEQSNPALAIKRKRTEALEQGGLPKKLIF
Sequence (P51946 whole entry partner, looked up, species assumed): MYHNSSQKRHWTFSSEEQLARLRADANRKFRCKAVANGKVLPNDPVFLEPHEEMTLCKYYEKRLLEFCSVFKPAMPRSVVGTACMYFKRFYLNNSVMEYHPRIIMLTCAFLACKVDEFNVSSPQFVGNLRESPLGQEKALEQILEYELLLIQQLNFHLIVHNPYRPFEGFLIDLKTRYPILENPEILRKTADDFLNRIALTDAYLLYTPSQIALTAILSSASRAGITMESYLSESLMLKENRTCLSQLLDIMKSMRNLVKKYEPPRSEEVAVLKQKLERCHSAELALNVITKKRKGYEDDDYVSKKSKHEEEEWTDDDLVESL
Sequence (P51948 whole entry partner, looked up, species assumed): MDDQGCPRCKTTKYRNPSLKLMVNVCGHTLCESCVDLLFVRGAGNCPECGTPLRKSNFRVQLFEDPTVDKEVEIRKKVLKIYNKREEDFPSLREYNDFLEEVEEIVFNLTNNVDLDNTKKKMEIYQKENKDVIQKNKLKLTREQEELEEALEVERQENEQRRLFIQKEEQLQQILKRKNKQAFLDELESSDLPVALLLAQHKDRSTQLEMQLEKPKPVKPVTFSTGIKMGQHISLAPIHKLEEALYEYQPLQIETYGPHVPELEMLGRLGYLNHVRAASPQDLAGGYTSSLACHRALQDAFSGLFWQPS
reported.property: IC50 (nM)
Give just the number in nM; leave the unit off.

These solved cases illustrate the format of a correct answer.
compound: C=CC(=O)N1CCN(c2ccc(C(C)C(=O)Nc3cc(C4CC4)[nH]n3)cn2)CC1 (stereo not shown)
IC50 (nM): 2090
//
compound: CC#CC(=O)N1CC=C(c2ccc(C(C)C(=O)Nc3cc(C4CC4)[nH]n3)cn2)CC1 (stereo not shown)
IC50 (nM): 1690
//
compound: C=CC(=O)N1CCN(c2ccc(C(C)C(=O)Nc3cc(C4CC4)[nH]n3)cc2)CC1 (single isomer, unassigned)
IC50 (nM): 2320
//
compound: C[C@H](C(=O)Nc1cc(C2CC2)[nH]n1)c1ccc(C2=CCN(C(=O)/C=C/CN(C)C)CC2)cc1
IC50 (nM): 621
//
compound: C=CC(=O)N1CCC(c2ccc([C@H](C)C(=O)Nc3cc(C4CC4)[nH]n3)cc2)CC1
IC50 (nM): 2830

Per the records, this compound ( C=CC(=O)N1CCC=C(c2ccc(C(C)C(=O)Nc3cc(C4CC4)[nH]n3)cc2F)C1 (stereo not shown) ) has IC50 equal to 440

Per the records, this compound ( C=CC(=O)N1CC=C(c2ccc(C(C)C(=O)Nc3cc(C4CC4)[nH]n3)cn2)CC1 (stereo not shown) [Compound 4] ) has IC50 equal to 1710

----------
target: CDK13 (Homo sapiens (Human)); assay: Biochemical assay for CDK13, LanthaScreen Eu Kinase Binding Assay; conditions: ratio of IC50
Ratio CDK7/CDK13 listing for selected compounds.
Field format: numeric only.

These solved cases illustrate the format of a correct answer.
compound: C=CC(=O)N1CCC=C(c2ccc(C(C)C(=O)Nc3cc(C4CC4)[nH]n3)cc2F)C1 (centres unmarked)
Ratio CDK7/CDK13: 5.05

compound: C=CC(=O)N1CCN(c2ccc(C(C)C(=O)Nc3cc(C4CC4)[nH]n3)cn2)CC1 (centres unmarked)
Ratio CDK7/CDK13: 22.23

compound: C#CC(=O)N1CC=C(c2ccc(C(C)C(=O)Nc3cc(C4CC4)[nH]n3)cn2)CC1 (centres unmarked)
Ratio CDK7/CDK13: 1.71

compound: C=CC(=O)N1CC=C(c2ccc(C(C(=O)Nc3cc(C4CC4)[nH]n3)C(C)C)cc2)CC1 (centres unmarked)
Ratio CDK7/CDK13: 5.0

compound: CC#CC(=O)N1CC=C(c2ccc(C(C)C(=O)Nc3cc(C4CC4)[nH]n3)cn2)CC1 (centres unmarked)
Ratio CDK7/CDK13: 67.68

compound: C=CC(=O)N1CCN(c2ccc(C(C)C(=O)Nc3cc(C4CC4)[nH]n3)cc2)CC1 (centres unmarked) [Compound 18]
Ratio CDK7/CDK13: 198.46

compound: CC#CC(=O)N1CCC=C(c2ccc(C(C)C(=O)Nc3cc(C4CC4)[nH]n3)cn2)C1 (centres unmarked)
Ratio CDK7/CDK13: 115.26

Here's the next entry for you.
Per the records, this compound ( "C[C@H](C(=O)Nc1cc(C2CC2)[nH]n1)c1ccc(C2=CCN(C(=O)/C=C/CN(C)C)CC2)cc1" ) has Ratio CDK7/CDK13 equal to 33.03

----------
What follows is a record of pIC50 for CDK13 (Homo sapiens (Human)).
Please express pIC50 as -log10 of the molar concentration.

These solved cases illustrate the format of a correct answer.
molecule: C=CC(=O)N1CC=C(c2ccc(C(C)C(=O)Nc3cc(C4CC4)[nH]n3)cn2)C1 (stereo not drawn) [Compound 47]
val: 8.22
--
molecule: C=CC(=O)N1CCC=C(c2ccc(C(C(=O)Nc3cc(C4CC4)[nH]n3)C(C)C)cn2)C1 (stereo not drawn) [Compound 43]
val: 7.27
--
molecule: C=CC(=O)N1CCC=C(c2ccc(C(C)C(=O)Nc3cc(C4CC4)[nH]n3)cn2)C1 (stereo not drawn) [Compound 35]
val: 8.22
--
molecule: C=CC(=O)N1CCC=C(c2ccc(C(C)C(=O)Nc3cc(C4CC4)[nH]n3)cc2)CC1 (stereo not drawn) [Compound 9]
val: 7.68
--
molecule: CC#CC(=O)N1CC=C(c2ccc(C(C)C(=O)Nc3cc(C4CC4)[nH]n3)cn2)CC1 (stereo not drawn) [Compound 51]
val: 7.60

Per the records, this molecule ( C=CC(=O)N1CC=C(c2ccc(C(C)C(=O)Nc3cc(C4CC4)[nH]n3)cc2F)CC1 (stereo not drawn) [Compound 44] ) has pIC50 equal to 8.24

Per the records, this molecule ( C=C(C)C(=O)N1CCC=C(c2ccc(CC(=O)Nc3cc(C4CC4)[nH]n3)cn2)C1 [Compound 57] ) has pIC50 equal to 8.00

Per the records, this molecule ( C=CC(=O)N1CC=C(c2ccc(C(C)C(=O)Nc3cc(C4CC4)[nH]n3)cn2)C1 (stereo not drawn) [Compound 38] ) has pIC50 equal to 7.00

Per the records, this molecule ( C=CC(=O)N1CC=C(c2ccc(C(C)C(=O)Nc3cc(C4CC4)[nH]n3)cn2)CC1 (stereo not drawn) [Compound 4] ) has pIC50 equal to 8.52
